assay: Inhibition of Thermotoga maritima Beta-glucosidase GH1

ITEM SMILES	Ki / nM
OC[C@@H]1[C@@H](O)[C@H](O)[C@H](O)c2nnnn21	170

====

biological target: Beta-mannosidase (Bacteroides thetaiotaomicron (strain ATCC 29148 / DSM 2079 / NCTC10582 / E50 / VPI-5482), UniProt Q8AAK6, Y537A)
Sequence (Q8AAK6 26-864 Y537A limits assumed): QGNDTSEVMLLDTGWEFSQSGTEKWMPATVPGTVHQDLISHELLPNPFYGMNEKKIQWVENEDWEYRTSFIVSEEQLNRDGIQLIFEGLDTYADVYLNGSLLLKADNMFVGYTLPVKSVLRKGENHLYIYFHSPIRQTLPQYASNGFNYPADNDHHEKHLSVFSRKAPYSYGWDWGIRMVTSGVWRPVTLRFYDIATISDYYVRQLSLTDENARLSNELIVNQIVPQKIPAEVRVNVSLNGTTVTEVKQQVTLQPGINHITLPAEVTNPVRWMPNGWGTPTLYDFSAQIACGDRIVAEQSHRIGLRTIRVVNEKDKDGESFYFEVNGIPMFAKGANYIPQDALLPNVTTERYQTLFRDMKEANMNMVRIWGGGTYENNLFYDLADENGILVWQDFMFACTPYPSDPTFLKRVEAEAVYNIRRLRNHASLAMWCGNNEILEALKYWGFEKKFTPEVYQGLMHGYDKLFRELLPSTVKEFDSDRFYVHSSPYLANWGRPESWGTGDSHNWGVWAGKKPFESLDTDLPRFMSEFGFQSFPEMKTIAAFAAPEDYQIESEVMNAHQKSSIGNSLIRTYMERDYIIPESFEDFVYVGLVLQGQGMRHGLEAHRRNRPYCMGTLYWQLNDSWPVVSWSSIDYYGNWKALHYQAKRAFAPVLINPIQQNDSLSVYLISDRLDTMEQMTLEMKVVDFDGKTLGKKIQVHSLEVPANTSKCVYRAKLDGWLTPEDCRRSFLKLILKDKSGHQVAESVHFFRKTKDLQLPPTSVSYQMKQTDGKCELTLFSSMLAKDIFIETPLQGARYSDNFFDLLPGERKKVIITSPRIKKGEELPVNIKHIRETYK
pKi: −log10 of the molar value.
Give true when the value for pKi is at least 5. Give false when it is less.

MOLECULE	CLASS LABEL
OC[C@@H]1[C@@H](O)[C@H](O)[C@H](O)c2nc(COc3ccccc3)cn21	true
OC[C@@H]1[C@@H](O)[C@H](O)[C@H](O)c2nc(CCc3ccccc3)cn21	true
OC[C@H]1C[C@H]2[C@@H](O)[C@@H](O)[C@@]1(O)CN2Cc1ccccc1	false
OC[C@H]1CNC(O)[C@@H](O)[C@@H]1O (stereo partly specified)	false
CCC/N=C1\N[C@H](CO)[C@@H](O)[C@H](O)[C@@H]1O	false
OC[C@@H]1[C@@H](O)[C@H](O)[C@H](O)c2nc(CNc3ccccc3)cn21	true

====

molecular target: Beta-mannosidase (Bacteroides thetaiotaomicron (strain ATCC 29148 / DSM 2079 / NCTC10582 / E50 / VPI-5482), UniProt Q8AAK6, Q646A)
Sequence (Q8AAK6 26-864 Q646A limits assumed): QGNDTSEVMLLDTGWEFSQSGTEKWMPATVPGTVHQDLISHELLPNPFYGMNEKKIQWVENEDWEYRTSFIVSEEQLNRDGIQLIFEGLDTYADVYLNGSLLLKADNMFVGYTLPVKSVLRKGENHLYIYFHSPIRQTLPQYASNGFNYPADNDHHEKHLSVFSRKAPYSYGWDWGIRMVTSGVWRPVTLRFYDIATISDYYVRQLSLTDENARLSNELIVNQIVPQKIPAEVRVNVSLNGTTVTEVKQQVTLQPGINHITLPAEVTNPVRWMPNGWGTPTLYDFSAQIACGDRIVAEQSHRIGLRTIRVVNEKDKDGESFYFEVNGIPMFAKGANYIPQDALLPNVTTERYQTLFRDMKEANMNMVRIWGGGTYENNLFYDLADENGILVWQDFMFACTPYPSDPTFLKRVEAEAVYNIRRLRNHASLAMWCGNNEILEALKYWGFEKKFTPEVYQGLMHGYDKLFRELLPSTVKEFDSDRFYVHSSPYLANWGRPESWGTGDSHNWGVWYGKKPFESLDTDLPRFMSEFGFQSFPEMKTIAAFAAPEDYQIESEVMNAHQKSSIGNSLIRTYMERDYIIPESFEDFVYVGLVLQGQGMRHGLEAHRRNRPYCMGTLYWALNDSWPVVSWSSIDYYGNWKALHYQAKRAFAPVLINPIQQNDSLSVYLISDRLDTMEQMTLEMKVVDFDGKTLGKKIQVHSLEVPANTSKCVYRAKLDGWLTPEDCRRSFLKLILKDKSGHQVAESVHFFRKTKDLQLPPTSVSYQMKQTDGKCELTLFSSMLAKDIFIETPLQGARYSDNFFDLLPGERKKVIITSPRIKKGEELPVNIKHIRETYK

COMPOUND	Ki
OC[C@@H]1[C@@H](O)[C@H](O)[C@H](O)c2nc(CCc3ccccc3)cn21	0.245 µM
OC[C@@H]1[C@@H](O)[C@H](O)[C@H](O)c2nc(CNc3ccccc3)cn21	0.311 µM
OC[C@H]1CNC(O)[C@@H](O)[C@@H]1O (stereo partly specified)	14 µM
OC[C@@H]1[C@@H](O)[C@H](O)[C@H](O)c2nc(COc3ccccc3)cn21	0.494 µM
OC[C@H]1C[C@H]2[C@@H](O)[C@@H](O)[C@@]1(O)CN2Cc1ccccc1	121 µM
CCC/N=C1\N[C@H](CO)[C@@H](O)[C@H](O)[C@@H]1O	71.2 µM

====

Catalogue of Ki values
biological target: Beta-mannosidase (Bacteroides thetaiotaomicron (strain ATCC 29148 / DSM 2079 / NCTC10582 / E50 / VPI-5482), UniProt Q8AAK6, N461A)
Sequence (Q8AAK6 26-864 N461A limits assumed): as the sequence (Q8AAK6 26-864 Y537A limits assumed) above, with N436A, A512Y counted along it

COMPOUND	Ki (µM)
OC[C@@H]1[C@@H](O)[C@H](O)[C@H](O)c2nc(CNc3ccccc3)cn21	7.28
CCC/N=C1\N[C@H](CO)[C@@H](O)[C@H](O)[C@@H]1O	34.8
OC[C@@H]1[C@@H](O)[C@H](O)[C@H](O)c2nc(CCc3ccccc3)cn21	3.19
OC[C@@H]1[C@@H](O)[C@H](O)[C@H](O)c2nc(COc3ccccc3)cn21	19.1
OC[C@H]1CNC(O)[C@@H](O)[C@@H]1O (stereo partly specified)	641
OC[C@H]1C[C@H]2[C@@H](O)[C@@H](O)[C@@]1(O)CN2Cc1ccccc1	3750

====

experiment: Inhibition of wild type Bacteroides thetaiotaomicron beta-mannosidase 2A expressed in Escherichia coli BL21 (DE3) at 37 degC and Ph 5.6 by 2,4-dinitrophenolate release assay
pKi: −log10 of the molar value.

ITEM SMILES	RESULT COMPARATOR	pKi
NCCCC/N=C1\N[C@H](CO)[C@@H](O)[C@H](O)[C@H]1O	=	4.66
CCC/N=C1\N[C@H](CO)[C@@H](O)[C@H](O)[C@@H]1O	=	5.72
OC[C@H]1NC[C@H](O)[C@@H](O)[C@@H]1O	=	1.85
O[C@H]1[C@H](O)[C@@H](O)CN2CC[C@H](O)[C@H]12	=	1.64
OC[C@@H]1[C@@H](O)[C@H](O)[C@H](O)c2nc(COc3ccccc3)cn21	=	6.40
CC(C)O[C@@H]1O[C@]2(CO)CC[C@]1(O)[C@@H](O)[C@@H]2O	<	0.40
OC[C@H]1N/C(=N/O)[C@H](O)[C@@H](O)[C@@H]1O	=	2.70

====

Catalogue of Ki values
target: Beta-mannosidase (Bacteroides thetaiotaomicron (strain ATCC 29148 / DSM 2079 / NCTC10582 / E50 / VPI-5482), UniProt Q8AAK6, W395A)
Sequence (Q8AAK6 26-864 W395A limits assumed): as the sequence (Q8AAK6 26-864 Q646A limits assumed) above, with W370A, A621Q counted along it

MOLECULE	Ki / µM
CCC/N=C1\N[C@H](CO)[C@@H](O)[C@H](O)[C@@H]1O	1180
OC[C@H]1CNC(O)[C@@H](O)[C@@H]1O (stereo partly specified)	40.8
OC[C@@H]1[C@@H](O)[C@H](O)[C@H](O)c2nc(COc3ccccc3)cn21	284
OC[C@@H]1[C@@H](O)[C@H](O)[C@H](O)c2nc(CCc3ccccc3)cn21	47
OC[C@H]1C[C@H]2[C@@H](O)[C@@H](O)[C@@]1(O)CN2Cc1ccccc1	2850
OC[C@@H]1[C@@H](O)[C@H](O)[C@H](O)c2nc(CNc3ccccc3)cn21	46.6

====

Catalogue of Ki values
target: Beta-mannosidase (Bacteroides thetaiotaomicron (strain ATCC 29148 / DSM 2079 / NCTC10582 / E50 / VPI-5482), UniProt Q8AAK6, W198G)
Sequence (Q8AAK6 26-864 W198G limits assumed): as the sequence (Q8AAK6 26-864 Q646A limits assumed) above, with W173G, A621Q counted along it

COMPOUND	Ki / µM
OC[C@@H]1[C@@H](O)[C@H](O)[C@H](O)c2nc(CCc3ccccc3)cn21	14.2
OC[C@H]1C[C@H]2[C@@H](O)[C@@H](O)[C@@]1(O)CN2Cc1ccccc1	5690
OC[C@H]1CNC(O)[C@@H](O)[C@@H]1O (stereo partly specified)	788
CCC/N=C1\N[C@H](CO)[C@@H](O)[C@H](O)[C@@H]1O	10500
OC[C@@H]1[C@@H](O)[C@H](O)[C@H](O)c2nc(CNc3ccccc3)cn21	58.5
OC[C@@H]1[C@@H](O)[C@H](O)[C@H](O)c2nc(COc3ccccc3)cn21	356

====

target: Beta-mannosidase (Bacteroides thetaiotaomicron (strain ATCC 29148 / DSM 2079 / NCTC10582 / E50 / VPI-5482), UniProt Q8AAK6, W645A)
Sequence (Q8AAK6 26-864 W645A limits assumed): as the sequence (Q8AAK6 26-864 Q646A limits assumed) above, with W620A, A621Q counted along it
pKi: −log10 of the molar value.
QUANTITY KIND: pKi

COMPOUND	VALUE REPORTED
CCC/N=C1\N[C@H](CO)[C@@H](O)[C@H](O)[C@@H]1O	2.24
OC[C@H]1C[C@H]2[C@@H](O)[C@@H](O)[C@@]1(O)CN2Cc1ccccc1	1.84
OC[C@@H]1[C@@H](O)[C@H](O)[C@H](O)c2nc(CCc3ccccc3)cn21	3.49
OC[C@@H]1[C@@H](O)[C@H](O)[C@H](O)c2nc(CNc3ccccc3)cn21	4.17
OC[C@@H]1[C@@H](O)[C@H](O)[C@H](O)c2nc(COc3ccccc3)cn21	3.61
OC[C@H]1CNC(O)[C@@H](O)[C@@H]1O (stereo partly specified)	5.96

====

assay: Inhibition of wild type Bacteroides thetaiotaomicron beta-mannosidase 2A expressed in Escherichia coli BL21 (DE3) at 37 degC and Ph 5.6 by 2,4-dinitrophenolate release assay
pKi: −log10 of the molar value.
QUANTITY KIND: pKi

MOLECULE	QUANTITY KIND	VALUE REPORTED
OC[C@H]1CNC[C@@H](O)[C@@H]1O	pKi	2.05
OC[C@@H]1[C@@H](O)[C@H](O)[C@H](O)c2nnnn21	pKi	3.00
OCCC/N=C1\N[C@H](CO)[C@@H](O)[C@H](O)[C@@H]1O	pKi	5.66
CCCCN1C[C@H](O)[C@@H](O)[C@H](O)[C@H]1CO	pKi	2.22
NCCC/N=C1\N[C@H](CO)[C@@H](O)[C@H](O)[C@@H]1O	pKi	5.68
O[C@@H]1[C@@H](O)[C@H](O)[C@@]2(O)CC[C@H]1N2	pKi	1.96
OC[C@H]1ONC[C@@H](O)[C@@H]1O [TETRAHYDROOXAZINE]	pKi	1.70
OC[C@@H]1[C@@H](O)[C@H](O)[C@H](O)c2nc(CCc3ccccc3)cn21	pKi	7.24
OC[C@H]1C[C@@H]2NC[C@]1(O)[C@H](O)[C@@H]2O	pKi	3.30
OC[C@@H]1[C@@H](O)[C@H](O)[C@H](O)c2nc(C#Cc3ccccc3)cn21	pKi	5.62
